method.summary: physchem
setup.conditions: ether, organic solvent or mixture
*1 amine or outer side, *2 acyl side, *3 side chain or, on linkers, in order; H or OH if unused. Where a SMILES comes first, the peptide text is derived from it. [ ]: non-standard residue; d: D form. ξ: configuration not given here. X1 = Cn1c(=NC(N)=O)ccn(C2SC(C(O)C(N[*:1])C(=O)[*:2])C(O)C2O)c1=O; ξOrn(N(OH)Ac) = CC(=O)N(O)CCCC(N)C(=O)O; ξS = NC(CO)C(=O)O
endpoint.name: solubility

Form: compound = CC(=O)N(O)CCCC(N)C(=O)NC(CCCN(O)C(C)=O)C(=O)NC(CCCN(O)C(C)=O)C(=O)NC(CO)C(=O)NC(C(=O)O)C(O)C1SC(n2ccc(=NC(N)=O)n(C)c2=O)C(O)C1O (stereo not shown) [BAY i 3265 component B] (H-[ξOrn(N(OH)Ac)][ξOrn(N(OH)Ac)][ξOrn(N(OH)Ac)][ξS][X1]-OH) ; solubility = < 100 µg/mL
